Tested on: Rat calvarial osteoblasts (RCO)
Assay Comment: Alkaline phosphatase (ALP) assay, osteoblast differentiation
Assay type: cell-based
Assay Setup: 48 h, ALP activity
Measurement Type: osteogenic concentration

// worked examples, osteogenic concentration included
compound="O=c1cc(-c2ccc(O)cc2)oc2cc(O)c([C@@H]3O[C@H](CO)[C@@H](O)[C@H](O)[C@H]3O)c(O)c12 [219/K017, Isovitexin]" measurement_type="osteogenic concentration" result="(1 μM)"
compound="O=c1cc(-c2ccc(O)c(O)c2)oc2cc(O)ccc12 [219/K011, 7,3′,4′-trihydroxy-flavone]" measurement_type="osteogenic concentration" result="(10 nM)"
compound="O=c1cc(-c2ccc(O)cc2)oc2cc(O)ccc12 [219/K009, 7,4′-dihydroxy flavone]" measurement_type="osteogenic concentration" result="(10 nM)"
compound="Cc1cc(O)c2c(c1)C(=O)c1cc(O)cc(O)c1C2=O [219/K012, Emodin]" measurement_type="osteogenic concentration" result="(10 nM)"

Entry under test: O=c1cc(-c2ccc(O)cc2)oc2cc(O)cc(O)c12 [219/K007, Apigenin] . Its osteogenic concentration was (1 μM)

Entry source: patent US11304927B2
